# ASSAY SYSTEM: Liver carboxylesterase (Sus scrofa, UniProt Q29550)
# Sequence (Q29550 whole entry): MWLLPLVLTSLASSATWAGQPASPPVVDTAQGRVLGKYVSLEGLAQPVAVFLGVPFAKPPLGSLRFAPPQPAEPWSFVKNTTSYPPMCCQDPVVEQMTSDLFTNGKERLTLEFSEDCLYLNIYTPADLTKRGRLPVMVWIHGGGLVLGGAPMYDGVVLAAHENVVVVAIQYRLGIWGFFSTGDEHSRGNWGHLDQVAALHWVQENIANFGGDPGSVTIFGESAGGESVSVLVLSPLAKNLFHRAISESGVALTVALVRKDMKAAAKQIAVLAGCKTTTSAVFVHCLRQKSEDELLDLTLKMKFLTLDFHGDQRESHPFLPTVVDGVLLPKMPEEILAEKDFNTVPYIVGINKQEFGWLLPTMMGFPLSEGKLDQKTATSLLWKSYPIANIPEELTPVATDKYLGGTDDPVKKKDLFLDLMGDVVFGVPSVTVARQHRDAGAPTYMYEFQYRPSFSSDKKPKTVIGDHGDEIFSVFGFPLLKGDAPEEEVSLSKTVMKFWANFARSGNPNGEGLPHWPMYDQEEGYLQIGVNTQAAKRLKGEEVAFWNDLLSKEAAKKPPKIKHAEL
# PROTOCOL DETAILS: Inhibition of porcine liver carboxylesterase using 4-nitrophenol acetate as substrate by spectrophotometric analysis
# CONDITION SUMMARY: read-out: IC50
ENDPOINT: IC50 (µM)
Express the result in µM but write the number alone.

Q: Provide IC50 value for the following compound: Br.CC(C)(C)c1ccc(CN(Cc2ccccc2)C2=NCC(CBr)S2)cc1 (stereo unspecified)
Ans: 0.32

Q: Look up and report measured IC50 for this entry: COc1ccc(CN(Cc2ccccc2)C2=NCC(CI)S2)cc1.I (stereo unspecified)
Ans: 4.66

Q: Identify the reported IC50 for the following entry. Clc1ccc(CN(Cc2cccnc2)C2=NCC(CI)S2)cc1.I (stereo unspecified)
Ans: 18

Q: Tell us which IC50 value is on record for CC(C)c1ccc(CN(Cc2ccccc2)C2=NCC(CI)S2)cc1.I (stereo unspecified)
Ans: 2.13

Q: Recall and state the measured IC50 for Br.CC(C)c1ccc(CN(Cc2ccccc2)C2=NCC(CBr)S2)cc1 (stereo unspecified) .
Ans: 2.55

Q: Tell me measured IC50 for I.ICC1CN=C(N(Cc2ccccc2)Cc2ccccc2)S1 (stereo unspecified) please.
Ans: 46

Q: Give reported IC50 value for Br.BrCC1CN=C(N(Cc2ccccc2)Cc2ccccc2)S1 (stereo unspecified)
Ans: 32

Q: Indicate the recorded IC50 value for this compound: CC(c1ccccc1)N(Cc1ccccc1)C1=NCC(CI)S1.I (stereo unspecified)
Ans: 19
